Data origin, for the record: the supplement of paper PMC13380429

Tested on: HepG2
TEST_PROTOCOL: cell viability relative to DMSO; higher = less toxic
CONDITION_DESCRIPTION: 72 h; 100 nM
EXPERIMENTAL_READOUT: cell viability (%)
// return numeric value only (unit: %, not printed)

COMPOUND: COC(=O)[C@@H](N)CS [mecysteine]
cell viability / %: 99.6
//
COMPOUND: N#CSc1cc(SC#N)c(N)nc1N [PR-619]
cell viability / %: 108
//
COMPOUND: CC(C)N(C[C@H]1O[C@@H](n2cnc3c(N)ncnc32)[C@H](O)[C@@H]1O)[C@H]1C[C@@H](CCc2nc3cc(C(C)(C)C)ccc3[nH]2)C1 [EPZ-5676]
cell viability / %: 89.7
//
COMPOUND: NC(=O)c1ccc(N(C(N)=O)c2c(F)cccc2F)nc1-c1ccc(F)cc1F [VX-702]
cell viability / %: 91.9
//
COMPOUND: CCCCCCCCCCCC(=O)O [lauric-acid]
cell viability / %: 87.4
//
COMPOUND: CC(C)(c1ccc(O)cc1)c1ccc(O)cc1 [bisphenol-A]
cell viability / %: 103
//
COMPOUND: CC(C)Oc1ccc(Cc2ccc(NC3=NCCN3)cc2)cc1
cell viability / %: 104
//
COMPOUND: O=C(NCCN1CCCCC1)c1ccc(I)cc1 [N-[2-(piperidinylamino)ethyl]-4-iodobenzamide]
cell viability / %: 103

# get_value(readout='cell viability', item= c1ccc2cc(C3=NCCN3)ncc2c1 [BU226] )
86.1

Query: cell viability; subject: CN1c2ccccc2C(=O)N2CCc3c([nH]c4ccccc34)C21 (stereo in doubt) [evodiamine]
98.6
